Tgt: Neurotensin receptor type 2 (Homo sapiens) (UniProt O95665)
Sequence (O95665 whole entry, looked up): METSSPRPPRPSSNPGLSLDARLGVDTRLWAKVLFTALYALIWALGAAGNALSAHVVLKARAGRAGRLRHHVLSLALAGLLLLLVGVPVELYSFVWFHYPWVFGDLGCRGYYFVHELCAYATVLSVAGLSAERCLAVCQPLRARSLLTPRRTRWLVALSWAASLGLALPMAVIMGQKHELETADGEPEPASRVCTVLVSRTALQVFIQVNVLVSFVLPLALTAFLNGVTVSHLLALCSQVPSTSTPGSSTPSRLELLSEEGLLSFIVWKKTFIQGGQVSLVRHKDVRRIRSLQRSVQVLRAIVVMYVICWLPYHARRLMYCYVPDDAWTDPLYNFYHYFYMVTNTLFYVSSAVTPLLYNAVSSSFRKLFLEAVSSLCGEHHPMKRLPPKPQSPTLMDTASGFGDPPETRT
Experiment notes: beta-arrestin recruitment via NTR2 activation – imaging, NTR2-U2OS cells, beta-arrestin GFP imaging, selectivity assay for NTR1 agonist project, SAR follow-up (AID 588495)
Measurement setup: image-based GFP translocation
Active and inactive are the calls of the source.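 How the source made its calls: active means mean EC50 of 20 µM or lower; inactive means the rest.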
The following molecules are listed with their measured EC50 values.

{"Chemical structure": "Cc1cccc(C)c1-c1nc(C(=O)N[C@@H](CC(C)C)C(=O)O)cn1-c1ccnc2cc(Cl)ccc12", "Quantity measured": "EC50", "Experimental value": "> 40 µM (inactive)"}
{"Chemical structure": "COc1cccc(OC)c1-c1nc(C(=O)O)cn1-c1ccncc1", "Quantity measured": "EC50", "Experimental value": "> 40 µM (inactive)"}
{"Chemical structure": "COc1cc2c3nnc(-c4ccc(C)c(C)c4)c-3cn(Cc3ccccc3)c2cc1OC", "Quantity measured": "EC50", "Experimental value": "> 40 µM (inactive)"}
{"Chemical structure": "O=C(O)c1nc(-c2ccnc3ccccc23)c(-c2ccccc2)s1", "Quantity measured": "EC50", "Experimental value": "> 40 µM (inactive)"}
{"Chemical structure": "c1ccc(Cn2cc3c(-c4ccccc4)nnc-3c3ccccc32)cc1", "Quantity measured": "EC50", "Experimental value": "> 40 µM (inactive)"}
{"Chemical structure": "COc1cc2c3nnc(-c4ccc(F)cc4)c-3cn(Cc3cccc(C)c3)c2cc1OC", "Quantity measured": "EC50", "Experimental value": "4.47 µM"}

Tell me reported EC50 for COc1cccc(OC)c1-c1cc(C(=O)N[C@@H](CC(C)C)C(=O)OC(C)(C)C)nn1-c1ccnc2cc(Cl)ccc12 , tested with Neurotensin receptor type 2 (Homo sapiens) (UniProt O95665).
> 40 µM (inactive)

Please provide the recorded EC50 for CN(C)S(=O)(=O)c1ccc(-c2csc(N/N=C/c3ccc(C(C)(C)C)cc3)n2)cc1 , tested on Neurotensin receptor type 2 (Homo sapiens) (UniProt O95665).
> 40 µM (inactive)

* * *

Tgt: Neurotensin receptor type 2 (Homo sapiens) (UniProt O95665)
Experiment notes: beta-arrestin recruitment via NTR2 activation – imaging, NTR2-U2OS cells, beta-arrestin GFP imaging, selectivity assay for NTR1 agonist project, SAR follow-up (AID 588495)
Measurement setup: image-based GFP translocation
The source made the active and inactive calls.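 Rule for the calls: active = mean EC50 of 20 µM or lower; inactive = the rest.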
Quantity measured: EC50

{"Chemical structure": "COc1ccccc1-c1nc(C(=O)N[C@@H](CC(C)C)C(=O)O)cn1-c1ccnc2ccccc12", "EC50": "> 40 µM (inactive)"}
{"Chemical structure": "CCOc1cc2nc(-c3ccc(OC)c(OC)c3)nc(N3CCN(c4ccccc4)CC3)c2cc1OC", "EC50": "> 40 µM (inactive)"}
{"Chemical structure": "Cc1ccc(Cn2cc3c(-c4ccc(F)cc4)nnc-3c3cc4c(cc32)OCO4)cc1", "EC50": "15.3 µM"}
{"Chemical structure": "Cc1ccc(-n2ncc3c(N4CCN(c5ccccc5)CC4)ncnc32)c(C)c1", "EC50": "> 40 µM (inactive)"}
{"Chemical structure": "CN(C)S(=O)(=O)c1ccc(-c2csc(N/N=C/c3cccs3)n2)cc1", "EC50": "> 40 µM (inactive)"}

Let us move to another entry and its EC50.
Query (compound): COc1cc2nc(SCc3ccncc3)n(Cc3cccc(C(F)(F)F)c3)c(=N)c2cc1OC ; field requested: EC50
> 40 µM (inactive)

* * *

Tgt: Neurotensin receptor type 2 (Homo sapiens)
Experiment notes: beta-arrestin recruitment via NTR2 activation – imaging, NTR2-U2OS cells, beta-arrestin GFP imaging, selectivity assay for NTR1 agonist project, SAR follow-up (AID 588495)
Measurement setup: image-based GFP translocation
Calls of active or inactive are those of the source.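 Rule for the calls: active = mean EC50 of 20 µM or lower; inactive = the rest.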
API: response.call in label 1 for active, label 0 for inactive

{"Chemical structure": "COc1cc2nc(C3CCC3)nc(N3CCN(c4ccccc4C)CC3)c2cc1OC", "Tgt": "Neurotensin receptor type 2 (Homo sapiens)", "Assigned category": "label 0"}
{"Chemical structure": "COc1cc2c3nnc(-c4ccc(C)cc4)c-3cn(Cc3ccc(C)cc3)c2cc1OC", "Tgt": "Neurotensin receptor type 2 (Homo sapiens)", "Assigned category": "label 1"}
{"Chemical structure": "COc1ccccc1N1CCN(c2ncnc3c2cnn3-c2ccc(C)cc2C)CC1", "Tgt": "Neurotensin receptor type 2 (Homo sapiens)", "Assigned category": "label 0"}
{"Chemical structure": "CC(C)C[C@H](NC(=O)c1cn(-c2ccnc3ccccc23)c(-c2ccccc2)n1)C(=O)O", "Tgt": "Neurotensin receptor type 2 (Homo sapiens)", "Assigned category": "label 0"}
{"Chemical structure": "COc1ccc(-c2nnc3c4cc(OC)c(OC)cc4n(Cc4ccc(C)cc4)cc2-3)cc1", "Tgt": "Neurotensin receptor type 2 (Homo sapiens)", "Assigned category": "label 1"}
{"Chemical structure": "Cc1ccc(-n2ncc3c(N4CCN(c5cccc(Cl)c5)CC4)ncnc32)c(C)c1", "Tgt": "Neurotensin receptor type 2 (Homo sapiens)", "Assigned category": "label 0"}
{"Chemical structure": "Cc1ccc(-n2ncc3c(N4CCN(c5ccc(Cl)c(Cl)c5)CC4)ncnc32)c(C)c1", "Tgt": "Neurotensin receptor type 2 (Homo sapiens)", "Assigned category": "label 0"}
{"Chemical structure": "CN(C)S(=O)(=O)c1ccc(-c2csc(N/N=C/c3ccco3)n2)cc1", "Tgt": "Neurotensin receptor type 2 (Homo sapiens)", "Assigned category": "label 0"}

Outcome logged for COc1cccc(OC)c1-c1cc(C(=O)O)nn1-c1ccnc2cc(Cl)ccc12 in this assay:
label 0

For CCOc1cc2c(N3CCN(c4ccccc4OC)CC3)nc(-c3ccc(OC)c(OC)c3)nc2cc1OC , which call appears in the assay record?
label 0

Check the results log: what was the call for COc1ccccc1-c1cc(C(=O)O)nn1-c1ccnc2cc(Cl)ccc12 ?
label 0

// outcome(item) with item = CCc1ccc(-c2nnc3c4cc(OC)c(OC)cc4n(Cc4ccc(F)cc4)cc2-3)cc1
label 0
